Target Under Test: rat PDE10 enzyme (Rattus norvegicus (Rat), UniProt Q9QYJ6)
Sequence (Q9QYJ6 24-794): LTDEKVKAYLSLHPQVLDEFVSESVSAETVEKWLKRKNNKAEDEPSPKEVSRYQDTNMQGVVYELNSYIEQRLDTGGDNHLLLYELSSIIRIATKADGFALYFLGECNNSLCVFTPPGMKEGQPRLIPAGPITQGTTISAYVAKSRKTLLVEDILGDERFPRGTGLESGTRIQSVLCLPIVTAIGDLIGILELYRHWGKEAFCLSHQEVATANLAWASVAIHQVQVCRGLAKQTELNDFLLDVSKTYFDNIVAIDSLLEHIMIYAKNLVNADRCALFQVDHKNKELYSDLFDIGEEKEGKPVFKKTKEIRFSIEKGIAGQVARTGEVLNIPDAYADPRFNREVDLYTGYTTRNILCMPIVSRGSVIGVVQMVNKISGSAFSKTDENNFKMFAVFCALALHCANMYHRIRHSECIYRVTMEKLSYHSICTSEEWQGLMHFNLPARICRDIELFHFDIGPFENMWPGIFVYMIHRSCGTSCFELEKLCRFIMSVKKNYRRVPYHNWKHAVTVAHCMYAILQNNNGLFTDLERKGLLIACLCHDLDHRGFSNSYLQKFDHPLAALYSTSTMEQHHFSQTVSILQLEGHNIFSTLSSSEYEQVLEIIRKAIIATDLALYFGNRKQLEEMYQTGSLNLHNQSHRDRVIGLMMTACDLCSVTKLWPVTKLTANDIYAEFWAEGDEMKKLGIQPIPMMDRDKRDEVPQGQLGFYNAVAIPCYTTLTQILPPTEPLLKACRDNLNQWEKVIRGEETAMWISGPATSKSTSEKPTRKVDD
Measured Attribute: log10 of IC50 (log10 of the value in nM)

Compound | log10 of IC50
Cc1nc(-c2ccccc2F)c2c(N3CCc4c(c(C(F)(F)F)nn4C)C3)ncnn12 [Example 118] | -0.03
Cc1nc([C@@H]2CCOC2)c2c(N3CCc4nc(C5CC5)nc(OC(F)F)c4C3)ncnn12 [Example 141] | -0.85
Cc1nc(-c2ccccc2F)c2c(N3CCc4cnn(C)c4C3)ncnn12 [Example 2] | 0.47
Cc1nc([C@@H]2CCOC2)c2c(N3CCc4nn(C5CC5)cc4C3)ncnn12 [Example 11] | -0.76
Cc1nc(-c2ccccc2F)c2c(N3CCc4nc(C5CC5)ncc4C3)ncnn12 [Example 1] | 0.63
Cc1nc([C@@H]2CCOC2)c2c(N3CCc4nc(C5CC5)oc4C3)ncnn12 [Example 9] | -0.05
Cc1nc([C@@H]2CCOC2)c2c(N3CCc4cnn(CC(F)(F)F)c4C3)ncnn12 [Example 170] | 0.29
Cc1nc(C2CC2)nc2c1CN(c1ncnn3c(C)nc(-c4ccccc4F)c13)CC2 [Example 40] | -0.35
